target: ΔF508-CFTR (Homo sapiens, UniProt P13569, DEL508-508); experiment: Membrane potential optical (FRET/VIPR) assay, identification of potentiator compounds; conditions: Table 3; assay not given
Sequence (P13569 with tags, fused parts or gaps DEL508-508): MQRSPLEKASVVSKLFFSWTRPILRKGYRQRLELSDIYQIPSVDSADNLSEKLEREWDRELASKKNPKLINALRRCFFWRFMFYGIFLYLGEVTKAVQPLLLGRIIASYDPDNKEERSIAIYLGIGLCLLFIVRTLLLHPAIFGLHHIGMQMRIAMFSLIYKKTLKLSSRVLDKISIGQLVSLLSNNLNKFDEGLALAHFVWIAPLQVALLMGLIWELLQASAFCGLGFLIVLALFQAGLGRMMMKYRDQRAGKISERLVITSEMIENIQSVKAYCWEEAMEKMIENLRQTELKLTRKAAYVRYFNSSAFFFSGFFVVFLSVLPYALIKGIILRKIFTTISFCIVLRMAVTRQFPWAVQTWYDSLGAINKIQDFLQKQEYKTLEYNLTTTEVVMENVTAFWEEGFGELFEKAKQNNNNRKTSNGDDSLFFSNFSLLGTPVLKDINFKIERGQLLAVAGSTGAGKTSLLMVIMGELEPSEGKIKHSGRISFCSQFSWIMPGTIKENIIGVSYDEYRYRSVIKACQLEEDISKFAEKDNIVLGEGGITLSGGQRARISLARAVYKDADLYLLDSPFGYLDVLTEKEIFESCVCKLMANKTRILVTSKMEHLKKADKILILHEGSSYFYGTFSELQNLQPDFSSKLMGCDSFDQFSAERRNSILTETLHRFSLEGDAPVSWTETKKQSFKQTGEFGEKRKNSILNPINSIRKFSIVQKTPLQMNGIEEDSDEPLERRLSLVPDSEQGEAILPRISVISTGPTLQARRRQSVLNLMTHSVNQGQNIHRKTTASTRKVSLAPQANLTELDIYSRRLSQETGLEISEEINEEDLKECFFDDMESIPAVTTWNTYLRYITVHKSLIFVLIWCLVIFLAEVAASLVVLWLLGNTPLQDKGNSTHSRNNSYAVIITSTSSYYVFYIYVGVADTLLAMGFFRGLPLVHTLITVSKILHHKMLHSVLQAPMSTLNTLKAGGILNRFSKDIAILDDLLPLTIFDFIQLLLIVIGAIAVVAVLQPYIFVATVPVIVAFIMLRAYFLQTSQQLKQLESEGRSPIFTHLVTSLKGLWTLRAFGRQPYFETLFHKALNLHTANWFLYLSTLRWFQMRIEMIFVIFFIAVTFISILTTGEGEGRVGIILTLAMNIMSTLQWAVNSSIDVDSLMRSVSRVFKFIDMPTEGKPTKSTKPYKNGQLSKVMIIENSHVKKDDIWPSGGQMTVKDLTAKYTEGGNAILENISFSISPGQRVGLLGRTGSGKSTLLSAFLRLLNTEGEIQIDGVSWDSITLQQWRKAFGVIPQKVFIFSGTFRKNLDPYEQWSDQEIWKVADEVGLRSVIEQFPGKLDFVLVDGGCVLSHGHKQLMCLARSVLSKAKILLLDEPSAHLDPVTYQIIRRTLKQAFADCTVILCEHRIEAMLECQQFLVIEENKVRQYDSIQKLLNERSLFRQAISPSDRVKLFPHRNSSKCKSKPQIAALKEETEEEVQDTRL
pEC50: −log10 of the molar value.

{"compound": "CCOc1ccc2[nH]cc(C(=O)Nc3cc(O)c(C(C)(C)C)cc3C(C)(C)C)c(=O)c2c1", "pEC50": "> 5.00"}
{"compound": "Cc1ccc(NC(=O)c2c[nH]c3ccccc3c2=O)nc1", "pEC50": "4.22 to 4.60"}
{"compound": "O=C(Nc1ccc(F)cn1)c1c[nH]c2ccccc2c1=O", "pEC50": "4.22 to 4.60"}
{"compound": "COC(=O)C1CCCCN1c1ccc(NC(=O)c2c[nH]c3ccccc3c2=O)c(C(F)(F)F)c1 (centres unmarked)", "pEC50": "> 5.00"}
{"compound": "O=C(Nc1ccc2[nH]c(=O)oc2c1)c1c[nH]c2ccccc2c1=O", "pEC50": "4.22 to 4.60"}
{"compound": "Cc1cccc(-c2ccccc2NC(=O)c2c[nH]c3ccccc3c2=O)c1", "pEC50": "> 5.00"}
{"compound": "CN(Cc1ccccc1NC(=O)c1c[nH]c2ccccc2c1=O)C1CCCCC1", "pEC50": "> 5.00"}
{"compound": "O=C(Nc1ccccc1-c1cccc(Cl)c1)c1c[nH]c2ccccc2c1=O", "pEC50": "> 5.00"}
{"compound": "Cc1cccc2c(=O)c(C(=O)Nc3cc4[nH]ccc4cc3C(C)(C)C)c[nH]c12", "pEC50": "> 5.00"}
{"compound": "Cc1ccc2[nH]cc(C(=O)Nc3cc(O)c(C(C)(C)C)cc3C(C)(C)C)c(=O)c2c1", "pEC50": "> 5.00"}
{"compound": "COc1ccc(-c2ccccc2NC(=O)c2c[nH]c3ccccc3c2=O)cc1", "pEC50": "> 5.00"}
{"compound": "N#CCc1ccccc1NC(=O)c1c[nH]c2ccccc2c1=O", "pEC50": "4.60 to 5.00"}
{"compound": "Cc1cccc(NC(=O)c2c[nH]c3ccccc3c2=O)c1", "pEC50": "> 5.00"}
{"compound": "CSc1ccccc1NC(=O)c1c[nH]c2ccccc2c1=O", "pEC50": "> 5.00"}
{"compound": "CC(C)(C)OC(=O)N1CCC2(CCNc3cc(NC(=O)c4c[nH]c5ccccc5c4=O)ccc32)CC1", "pEC50": "> 5.00"}
{"compound": "COc1ccc2[nH]cc(C(=O)Nc3cc(O)c(C(C)(C)C)cc3C(C)(C)C)c(=O)c2c1", "pEC50": "> 5.00"}
{"compound": "CC(C)(C)c1cc2cc[nH]c2cc1NC(=O)c1c[nH]c2ccccc2c1=O", "pEC50": "> 5.00"}
{"compound": "O=C(Nc1ccc2c(c1)NCCC2)c1c[nH]c2ccccc2c1=O", "pEC50": "> 5.00"}
{"compound": "O=C(Nc1ccc2cc[nH]c2c1)c1cnc2ccc(Cl)cc2c1O", "pEC50": "> 5.00"}
{"compound": "Cc1ccnc(NC(=O)c2c[nH]c3ccccc3c2=O)c1", "pEC50": "4.22 to 4.60"}
{"compound": "Cc1cccc(-c2ccccc2NC(=O)c2c[nH]c3ccccc3c2=O)c1C", "pEC50": "> 5.00"}
{"compound": "Cc1cccc2[nH]cc(C(=O)Nc3ccc(N4C[C@@H]5CC[C@H]4C5)cc3C(F)(F)F)c(=O)c12", "pEC50": "> 5.00"}
{"compound": "CCc1cccc(NC(=O)c2c[nH]c3ccccc3c2=O)n1", "pEC50": "4.60 to 5.00"}
